molecular target: human P2X3 receptor (Homo sapiens); experiment: Intracellular calcium measurement to assess antagonist activity at human P2X3 receptors (hP2X3 CHO), photina luminescence; assay type: cell-based; set-up: expressed in transfected cells; host or cells: Chinese hamster ovary (CHO) cells; conditions: column 2), CHO cells, agonist α,β-methylene-ATP at EC50
The threshold is 60 nM. Values of IC50 beneath it are tagged Condition met; values meeting or exceeding it are tagged Condition not met.

Criterion: IC50 strictly below 60 nM. Is it met by CC(C)(C)c1cc2n(CC(=O)Nc3ccc(Cl)cn3)c3c(c(=O)n2n1)CN(C1CCC1)C3=O [Example 18] ?
Condition not met

Criterion: IC50 strictly below 60 nM. Is it met by Cc1cc2n(CC(=O)Nc3ccc(F)cn3)c3c(c(=O)n2n1)CN(C(C)C)C3=O [Example 23] ?
Condition not met

----------
target: human P2X3 receptor (Homo sapiens); experiment: Intracellular calcium measurement to assess antagonist activity at human P2X3 receptors (hP2X3 CHO), photina luminescence; assay type: cell-based; set-up: expressed in transfected cells; host or cells: Chinese hamster ovary (CHO) cells; conditions: column 2), CHO cells, agonist α,β-methylene-ATP at EC50
Overview of reported log10 of IC50 across a group of compounds:
Reminder: these figures are log10 of reported IC50, in nM before transformation.

Consider the following illustrative entries.
[[record]]
compound = "COC[C@H](C)N1Cc2c(n(CC(=O)Nc3ccc(F)cn3)c3cc(-c4ccnc(C)c4)nn3c2=O)C1=O"
measured_result = 1.00

[[record]]
compound = "CC(C)N1Cc2c(n(CC(=O)Nc3ccc(F)cn3)c3cc(C4CCN(C)C4)nn3c2=O)C1=O (racemic)"
measured_result = 2.48

[[record]]
compound = "Cc1ccc(NC(=O)Cn2c3c(c(=O)n4nc(C(F)(F)F)cc24)CN(C(C)C)C3=O)nc1"
measured_result = 2.23


Would you mind telling me what log10 of IC50 value was observed for CC(C)N1Cc2c(n(CC(=O)Nc3ccc(F)cn3)c3cc(C4CCN(C(=O)C(F)F)CC4)nn3c2=O)C1=O ?
1.56

Would you mind telling me what log10 of IC50 value was observed for CC(C)N1Cc2c(n(CC(=O)Nc3ccc(F)cn3)c3cc(C(F)(F)F)nn3c2=O)C1=O ?
2.08

Would you mind telling me what log10 of IC50 value was observed for CC(C)N1Cc2c(n(CC(=O)Nc3ccc(F)cn3)c3cc(-c4ccncc4)nn3c2=O)C1=O ?
1.04

Would you mind telling me what log10 of IC50 value was observed for COC[C@H](C)N1Cc2c(n(CC(=O)Nc3ccc(F)cn3)c3cc(C4CC4)nn3c2=O)C1=O ?
1.45

----------
Overview of reported IC50 across a group of molecules:
Target: human P2X3 receptor (Homo sapiens, UniProt P56373)
Sequence (P56373 1-397): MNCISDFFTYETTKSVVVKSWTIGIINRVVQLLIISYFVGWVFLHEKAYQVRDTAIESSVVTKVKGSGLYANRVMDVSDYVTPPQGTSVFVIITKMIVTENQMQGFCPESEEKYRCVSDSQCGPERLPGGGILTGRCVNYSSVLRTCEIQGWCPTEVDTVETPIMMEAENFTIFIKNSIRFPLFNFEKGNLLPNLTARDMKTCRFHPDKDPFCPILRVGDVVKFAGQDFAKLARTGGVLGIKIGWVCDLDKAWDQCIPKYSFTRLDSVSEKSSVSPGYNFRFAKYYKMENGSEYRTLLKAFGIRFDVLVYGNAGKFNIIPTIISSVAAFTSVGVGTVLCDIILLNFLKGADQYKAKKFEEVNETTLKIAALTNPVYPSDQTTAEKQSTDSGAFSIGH
Experiment: Intracellular calcium measurement to assess antagonist activity at human P2X3 receptors (hP2X3 CHO), photina luminescence
Format: cell-based
Set-up: expressed in transfected cells; host or cells: Chinese hamster ovary (CHO) cells
Details: column 2), CHO cells, agonist α,β-methylene-ATP at EC50
Experimental: 2) Intracellular Calcium Measurement to Assess Antagonist Activity at Human P2X3 Receptors (hP2X3 CHO) The determination of antagonistic activity at the P2X3 receptor of the compounds of the invention was performed by use of a recombinant cell line. […] The strength of the photina luminescence signal corresponds to the level of receptor activation upon agonist binding. […]
Form entry: enter the amount, then its unit.

[[record]]
molecule = "CCc1cc2n(CC(=O)Nc3ccc(Cl)cn3)c3c(c(=O)n2n1)CN(CC1CCOC1)C3=O (stereo not shown)"
measured_result = "105 nM"


Would you mind telling me what IC50 value was observed for CC(C)N1Cc2c(n(CC(=O)Nc3ccc(F)cn3)c3cc(C(=O)Nc4ncco4)nn3c2=O)C1=O ?
123 nM

Would you mind telling me what IC50 value was observed for CC(C)N1Cc2c(n(CC(=O)Nc3ccc(F)cn3)c3cc(NCCO)nn3c2=O)C1=O ?
130 nM

Would you mind telling me what IC50 value was observed for CCc1cc2n(CC(=O)Nc3ccc(F)cn3)c3c(c(=O)n2n1)CN(C[C@H]1CN(C2CC2)CCO1)C3=O ?
66 nM

Would you mind telling me what IC50 value was observed for CCc1cc2n(CC(=O)Nc3ccc(F)cn3)c3c(c(=O)n2n1)CN(C1CCNC1)C3=O.Cl (racemic) ?
615 nM

Would you mind telling me what IC50 value was observed for CC(C)(C)c1cc2n(CC(=O)Nc3ccc(F)cn3)c3c(c(=O)n2n1)CN(CC1CC1)C3=O ?
51 nM

Would you mind telling me what IC50 value was observed for COCCN1Cc2c(n(CC(=O)Nc3ccc(F)cn3)c3cc(CC(C)C)nn3c2=O)C1=O ?
8 nM

----------
target: human P2X3 receptor (Homo sapiens); test: Intracellular calcium measurement, antagonist activity at human P2X3 receptors (hP2X3 1321N1), Fluo8; format: cell-based; design: expressed in transfected cells; host or cells: human astrocytoma 1321N1 (1312N1 [sic]); conditions: column 3); 1321N1 cells, human P2X3, Fluo8, agonist ATP at EC50
Measurement name: IC50 (nM)
Please respond with the number in nM and leave the unit unwritten.

Would you mind telling me what IC50 value was observed for CC(C)N1Cc2c(n(CC(=O)Nc3ccc(F)cn3)c3cc(NC4CC4)nn3c2=O)C1=O [Example 167] ?
18

Would you mind telling me what IC50 value was observed for COCCN1Cc2c(n(CC(=O)Nc3ccc(F)cn3)c3cc(CC(C)C)nn3c2=O)C1=O [Example 98] ?
12

Would you mind telling me what IC50 value was observed for Cc1ccc(-c2cc3n(CC(=O)Nc4ccc(F)cn4)c4c(c(=O)n3n2)CN(C(C)C)C4=O)nc1 [Example 69] ?
4

Would you mind telling me what IC50 value was observed for CC(C)N1Cc2c(n(CC(=O)Nc3ccc(F)cn3)c3cc(NC(=O)OC(C)(C)C)nn3c2=O)C1=O [Example 91] ?
33

Would you mind telling me what IC50 value was observed for CC(C)N1Cc2c(n(CC(=O)Nc3ccc(F)cn3)c3cc(N(C)C)nn3c2=O)C1=O [Example 172] ?
42

----------
Target: human P2X2/3 receptors (Homo sapiens, UniProt P56373+Q9UBL9)
Construct: expressed in transfected cells; host or cells: human astrocytoma 1321N1 (1312N1 [sic])
Assay: Intracellular calcium measurement, antagonist activity at human P2X2/3 receptors (hP2X23 1321N1), Fluo8
Format: cell-based
Details: column 4); 1321N1 cells, human P2X2/3, Fluo8, agonist ATP at EC50; read-out: 4) hP2X2/3 IC50 [nM] (1321N1)
Experimental: 3) And 4) Intracellular Calcium Measurement to Compare Antagonist Activity at Human P2X3 Receptors (hP2X3 1321N1) and at Human P2X2/3 Receptors (hP2X23 1321N1) The comparison of antagonistic activity at the P2X3 versus the P2X2/3 receptor of the compounds of the invention were performed by use of recombinant cell lines. […] The cytoplasmatic calcium transient is detected via the calcium sensitive dye Fluo8. The strength of Fluo8 fluorescence signal corresponds to the level of receptor activation. […]
The threshold is 4000 nM. Values of IC50 beneath it are tagged YES; values meeting or exceeding it are tagged NO.

Would you please look over these solved cases?
[[record]]
molecule = "CC(C)N1Cc2c(n(CC(=O)Nc3ccc(F)cn3)c3cc(NC(=O)C4CCOCC4)nn3c2=O)C1=O"
class_name = "NO"

[[record]]
molecule = "COCc1cc2n(CC(=O)Nc3ccc(F)cn3)c3c(c(=O)n2n1)CN(C(C)C)C3=O"
class_name = "NO"


Criterion: IC50 strictly below 4000 nM. Is it met by O=C(Cn1c2c(c(=O)n3nc(C4CC4)cc13)CN(CCN1CCOCC1)C2=O)Nc1ccc(F)cn1 ?
NO

Criterion: IC50 strictly below 4000 nM. Is it met by CCc1cc2n(CC(=O)Nc3ccc(F)cn3)c3c(c(=O)n2n1)CN(C1CCN(C(=O)OC(C)(C)C)CC1)C3=O ?
NO

Criterion: IC50 strictly below 4000 nM. Is it met by CC(C)N1Cc2c(n(CC(=O)Nc3ccc(F)cn3)c3cc(NC4CC4)nn3c2=O)C1=O ?
YES

Criterion: IC50 strictly below 4000 nM. Is it met by COC[C@H](C)N1Cc2c(n(CC(=O)Nc3ccc(F)cn3)c3cc(C(=O)N(C)C4CC4)nn3c2=O)C1=O ?
NO

Criterion: IC50 strictly below 4000 nM. Is it met by CCc1cc2n(CC(=O)Nc3ccc(F)cn3)c3c(c(=O)n2n1)CN(C(COC)COC)C3=O ?
NO

Criterion: IC50 strictly below 4000 nM. Is it met by CC(C)N1Cc2c(n(CC(=O)Nc3ccc(F)cn3)c3cc(C(=O)Nc4cccnc4)nn3c2=O)C1=O ?
YES

Criterion: IC50 strictly below 4000 nM. Is it met by CCc1cc2n(CC(=O)Nc3ccc(F)cn3)c3c(c(=O)n2n1)CN(C[C@H]1CN(C)CCO1)C3=O ?
NO

Criterion: IC50 strictly below 4000 nM. Is it met by Cc1ccc(-c2cc3n(CC(=O)Nc4ccc(F)cn4)c4c(c(=O)n3n2)CN(C(C)C)C4=O)nc1 ?
YES

Criterion: IC50 strictly below 4000 nM. Is it met by CC(C)Cc1cc2n(CC(=O)Nc3ccc(F)cn3)c3c(c(=O)n2n1)CN(C1CCCC1)C3=O ?
YES

Criterion: IC50 strictly below 4000 nM. Is it met by CC(C)N1Cc2c(n(CC(=O)Nc3ccc(F)cn3)c3cc(C4CCN(C)CC4)nn3c2=O)C1=O ?
NO

Criterion: IC50 strictly below 4000 nM. Is it met by Cc1ccc(-c2cc3n(CC(=O)Nc4ccc(F)cn4)c4c(c(=O)n3n2)CN(C(C)C)C4=O)c(C)n1 ?
NO

Criterion: IC50 strictly below 4000 nM. Is it met by CC(C)N1Cc2c(n(CC(=O)Nc3ccc(F)cn3)c3cc(C(=O)Nc4c(F)cccc4F)nn3c2=O)C1=O ?
NO

Criterion: IC50 strictly below 4000 nM. Is it met by CCc1cc2n(CC(=O)Nc3ccc(F)cn3)c3c(c(=O)n2n1)CN(C1CCN(C)C1)C3=O (stereo not drawn) ?
NO
